- System: Mus musculus
- Assay Text: Blood level after oral administration in mice (50 mg/kg) was determined (area under the concentration-time curve recorded at 0.5, 1, 2, and 4 hour after dosing)
- Format: ADME, organism-based
- Parameters: dose 50 mg/kg, time < 4 hr, route oral
- Condition Details: in vivo
Readout Name: AUC

Query Smiles	Reported Result
NC1CN(c2cc3c(cc2F)c(=O)c(C(=O)O)cn3C2CC2)C1	3000 ng·h/mL
CC1(N)CN(c2c(F)cc3c(=O)c(C(=O)O)cn(C4CC4)c3c2F)C1	20000 ng·h/mL
CCNC1CN(c2c(F)cc3c(=O)c(C(=O)O)cn(C4CC4)c3c2F)C1	38200 ng·h/mL
NCC1CN(c2cc3c(cc2F)c(=O)c(C(=O)O)cn3C2CC2)C1	0 ng·h/mL
CNC1(C)CN(c2cc3c(cc2F)c(=O)c(C(=O)O)cn3C2CC2)C1	8400 ng·h/mL
CC1(N)CN(c2cc3c(cc2F)c(=O)c(C(=O)O)cn3C2CC2)C1	7000 ng·h/mL
CCNCC1CN(c2cc3c(cc2F)c(=O)c(C(=O)O)cn3C2CC2)C1	0 ng·h/mL
NCC1CN(c2c(F)cc3c(=O)c(C(=O)O)cn(C4CC4)c3c2F)C1	1700 ng·h/mL
NC1CN(c2c(F)cc3c(=O)c(C(=O)O)cn(C4CC4)c3c2F)C1	23000 ng·h/mL
CN(C)C1CN(c2c(F)cc3c(=O)c(C(=O)O)cn(C4CC4)c3c2F)C1	38200 ng·h/mL

====

- Tested on: Mus musculus
- Assay Text: Blood level after oral administration in mice (50 mg/kg) was determined (area under the concentration-time curve recorded at 0.5, 1, 2, and 4 hour after dosing)
- Type: ADME, organism-based
- Set-up: dose 50 mg/kg, time < 4 hr, route oral
- Condition Details: in vivo
AUC reference

Query Smiles	AUC, µg·h/mL
CCNC1CN(c2cc3c(cc2F)c(=O)c(C(=O)O)cn3C2CC2)C1	18.1
CNC1CN(c2c(F)cc3c(=O)c(C(=O)O)cn(C4CC4)c3c2F)C1	32.7
CNC1(C)CN(c2c(F)cc3c(=O)c(C(=O)O)cn(C4CC4)c3c2F)C1	15.8
CNC1CN(c2cc3c(cc2F)c(=O)c(C(=O)O)cn3C2CC2)C1	4.2
CN(C)C1CN(c2cc3c(cc2F)c(=O)c(C(=O)O)cn3C2CC2)C1	10.6

====

- Tested on: Bacillus cereus
- Assay Text: Minimum inhibitory concentration (MIC) preventing growth of Bacillus cereus
- Type: functional

Query Smiles	MIC
CC1(N)CN(c2c(F)cc3c(=O)c(C(=O)O)cn(CCF)c3c2F)C1	1 µg/mL
CNC1(C)CN(c2nc3c(cc2F)c(=O)c(C(=O)O)cn3C2CC2)C1	0.12 µg/mL
CCn1cc(C(=O)O)c(=O)c2cc(F)c(N3CC(C)(N)C3)c(F)c21	0.5 µg/mL
CC(=O)OC1CN(c2c(F)cc3c(=O)c(C(=O)O)cn(C4CC4)c3c2F)C1	0.12 µg/mL
CNC1(C)CN(c2cc3c(cc2F)c(=O)c(C(=O)O)cn3C(C)(C)C)C1	0.25 µg/mL
CNC1CN(c2c(F)cc3c(=O)c(C(=O)O)cn(C4CC4)c3c2Cl)C1	0.12 µg/mL
CCn1cc(C(=O)O)c(=O)c2c(N)c(F)c(N3CC(C)(N)C3)c(F)c21	1 µg/mL
O=C(O)c1cn(C2CC2)c2cc(N3CCNCC3)c(F)cc2c1=O	0.25 µg/mL
CC1(N)CN(c2nc3c(cc2F)c(=O)c(C(=O)O)cn3-c2ccc(F)cc2)C1	0.25 µg/mL
CCNCC1CN(c2cc3c(cc2F)c(=O)c(C(=O)O)cn3C2CC2)C1	0.5 µg/mL
